- TARGET SYSTEM: human δ opioid receptor (human, UniProt P41143 1-372)
- Sequence (P41143 whole entry, stated change not applied): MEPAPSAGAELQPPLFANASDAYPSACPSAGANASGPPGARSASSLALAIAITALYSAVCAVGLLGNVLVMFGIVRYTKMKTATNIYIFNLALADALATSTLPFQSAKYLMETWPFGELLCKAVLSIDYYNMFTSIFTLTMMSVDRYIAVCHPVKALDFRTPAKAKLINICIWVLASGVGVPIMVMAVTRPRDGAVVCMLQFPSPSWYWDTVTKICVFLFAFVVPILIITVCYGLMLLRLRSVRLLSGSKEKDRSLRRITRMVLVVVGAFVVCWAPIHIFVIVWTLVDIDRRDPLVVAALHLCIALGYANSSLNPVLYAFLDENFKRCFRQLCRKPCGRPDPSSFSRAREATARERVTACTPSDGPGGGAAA
- ASSAY REMARKS: cell-based or functional assay
Bridge positions count the residues as written; N and C are the ends. Square brackets hold non-standard residues; d marks the D form. Ends that are not written are not given here. * marks the point of attachment. NH(3,5-(CF3)2-benzyl) = FC(F)(F)c1cc(CN*)cc(C(F)(F)F)c1; Nle = CCCC[C@H](N)C(=O)O
binders and their reported [35S]GTPγS binding EC50
Kindly answer with a numeric value in nM, unit omitted.

Known [35S]GTPγS binding EC50 results, listed for orientation:
BINDER: Y[dC]GFCPLW-{NH(3,5-(CF3)2-benzyl)} (disulfide 2-5, cyclic; also called TY039; [D-Cys2, Cys5]TY027) [Tyr[DCysGlyPheCys]ProLeuTrpNHBn(CF3)2]
UNIT OF MEASUREMENT: nM
[35S]GTPγS binding EC50: 0.9
--
BINDER: Y[dC]GF[Nle]P[dC]W-{NH(3,5-(CF3)2-benzyl)} (disulfide 2-7, cyclic; also called TY038; [D-Cys2, D-Cys7]TY027) [Tyr[DCysGlyPheNleProDCys]TrpNHBn(CF3)2]
UNIT OF MEASUREMENT: nM
[35S]GTPγS binding EC50: 51
--
BINDER: Y[dC]GF[dC]PLW-{NH(3,5-(CF3)2-benzyl)} (disulfide 2-5, cyclic; also called TY037; [D-Cys2, D-Cys5]TY027) [Tyr[DCysGlyPheDCys]ProLeuTrpNHBn(CF3)2]
UNIT OF MEASUREMENT: nM
[35S]GTPγS binding EC50: 14

Qu. Give recorded [35S]GTPγS binding EC50. Y[dC]GF[Nle]PCW-{NH(3,5-(CF3)2-benzyl)} (disulfide 2-7, cyclic; also called TY035; [D-Cys2, Cys7]TY027) [Tyr[DCysGlyPheNleProCys]TrpNHBn(CF3)2]
Ans. 0.02

Qu. Please give the documented [35S]GTPγS binding EC50 of Y[dA]GFMPLW-{NH(3,5-(CF3)2-benzyl)} (also called TY027) [TyrDAlaGlyPheMetProLeuTrpNHBn(CF3)2]
Ans. 8.6

Attribution: patent US8026218
